test system: lambsquarters (Chenopodium album, CHEAL); assay: Pre-emerge test, greenhouse herbicide activity screening; assay type: in vivo; details: pre-emerge, 63 g ai/ha, 14 days after application, rating scale 0-100
// values below are reported phytotoxicity rating CHEAL
Note: the reply should be a number with no unit written.

Any idea what phytotoxicity rating CHEAL was measured for COc1c(Cl)cc(F)c(-n2c(=O)cc(C(F)(F)F)n(C)c2=O)c1SC [Compound 17-1] ?
90

Others:
Any idea what phytotoxicity rating CHEAL was measured for CCOC(=O)C(Cl)Cc1cc(Cl)cc(F)c1-n1nc(C)n(C(F)F)c1=O (stereo not shown) [14-52] ?
80

Any idea what phytotoxicity rating CHEAL was measured for COc1c(Cl)cc(F)c(-n2c(=O)cc(C(F)(F)F)n(C)c2=O)c1SCCO [17-5] ?
90

Any idea what phytotoxicity rating CHEAL was measured for COc1c(Cl)cc(F)c(-n2c(=O)cc(C(F)(F)F)n(C)c2=O)c1NN=C(C(F)(F)F)C(F)(F)F [15-21] ?
100

Any idea what phytotoxicity rating CHEAL was measured for CCCOC(=O)C(Cl)Cc1c(OCC)c(Cl)cc(F)c1-n1c(=O)cc(C(F)(F)F)n(C)c1=O (stereo not shown) [14-65] ?
60

Any idea what phytotoxicity rating CHEAL was measured for COc1c(Cl)cc(F)c(-n2c(=O)cc(C(F)(F)F)n(C)c2=O)c1NN=CCc1ccccc1 [15-15] ?
100

Any idea what phytotoxicity rating CHEAL was measured for COc1c(Cl)cc(F)c(-n2c(=O)cc(C(F)(F)F)n(C)c2=O)c1NNC(=O)Oc1ccccc1 [15-7] ?
100

Any idea what phytotoxicity rating CHEAL was measured for COc1c(Cl)cc(F)c(-n2c(=O)cc(C(F)(F)F)n(C)c2=O)c1NNC(=O)c1ccccc1 [15-3] ?
100

Any idea what phytotoxicity rating CHEAL was measured for COc1c(Cl)cc(F)c(-n2c(=O)cc(C(F)(F)F)n(C)c2=O)c1Sc1ccc2ccccc2c1 [17-4] ?
20

Any idea what phytotoxicity rating CHEAL was measured for Cn1c(C(F)(F)F)cc(=O)n(-c2ccc(Cl)cc2/C=C/c2ccc3ccccc3c2)c1=O [14-59] ?
40

Any idea what phytotoxicity rating CHEAL was measured for COc1c(Cl)cc(F)c(-n2c(=O)cc(C(F)(F)F)n(C)c2=O)c1CC(C)(Cl)C(=O)OCC1CCCO1 (stereo not shown) [14-49] ?
100

Any idea what phytotoxicity rating CHEAL was measured for CCOC(=O)NNc1c(OC)c(Cl)cc(F)c1-n1c(=O)cc(C(F)(F)F)n(C)c1=O [15-6] ?
100

Any idea what phytotoxicity rating CHEAL was measured for CCOC(=O)C(Cl)Cc1cc(Cl)cc(F)c1-n1c(=O)cc(C(F)(F)F)n(C)c1=O (stereo not shown) [14-60] ?
100
